biological target: panel of more than 300 wild-type and mutant kinases (313 kinase panel) (Homo sapiens, UniProt Q96GD4); experiment: Kinase profiling in a biochemical assay panel (mobility shift assays and ELISA), %-inhibition at 1 μM; selectivity entropy; settings: kinase AurB; 1 μM compound
Sequence (Q96GD4 whole entry, change not shown): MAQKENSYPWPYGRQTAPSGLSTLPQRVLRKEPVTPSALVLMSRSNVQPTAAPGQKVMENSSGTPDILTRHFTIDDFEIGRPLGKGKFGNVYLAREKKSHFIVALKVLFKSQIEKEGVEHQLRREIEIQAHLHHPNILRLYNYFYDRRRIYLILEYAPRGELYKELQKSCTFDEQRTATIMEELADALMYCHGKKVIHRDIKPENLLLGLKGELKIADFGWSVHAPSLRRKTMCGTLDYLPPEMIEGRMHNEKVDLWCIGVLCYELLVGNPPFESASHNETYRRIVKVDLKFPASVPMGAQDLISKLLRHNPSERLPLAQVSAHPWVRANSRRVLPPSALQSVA
reported_metric: %-inhibition, AurB (%)
Give bare numbers, in %.

Study these solved cases before continuing.
| molecule | assay_result |
| --- | --- |
| CNC(=O)c1cc(Oc2ccc(NC(=O)Nc3ccc(Cl)c(C(F)(F)F)c3)c(F)c2)ccn1 [regorafenib] | 20 |
| CO[C@H]1C[C@@H]2CC[C@@H](C)[C@@](O)(O2)C(=O)C(=O)N2CCCC[C@H]2C(=O)O[C@H]([C@H](C)C[C@@H]2CC[C@@H](OCCO)[C@H](OC)C2)CC(=O)[C@H](C)/C=C(\C)[C@@H](O)[C@@H](OC)C(=O)[C@H](C)C[C@H](C)/C=C/C=C/C=C/1C [everolimus] | -1.39 |
| COc1cc2nccc(Oc3ccc(NC(=O)C4(C(=O)Nc5ccc(F)cc5)CC4)cc3)c2cc1OC [cabozantinib] | 89 |
| CO[C@H]1C[C@@H]2CC[C@@H](C)[C@@](O)(O2)C(=O)C(=O)N2CCCC[C@H]2C(=O)O[C@H]([C@H](C)C[C@@H]2CC[C@@H](OC(=O)C(C)(CO)CO)[C@H](OC)C2)CC(=O)[C@H](C)/C=C(\C)[C@@H](O)[C@@H](OC)C(=O)[C@H](C)C[C@H](C)/C=C/C=C/C=C/1C [temsirolimus] | -4 |

Next item in the queue.
// query Can you look up the measured %-inhibition, AurB of CC(C)(C)c1nc(-c2cccc(NS(=O)(=O)c3c(F)cccc3F)c2F)c(-c2ccnc(N)n2)s1 [dabrafenib] for me?
// result 39

----------
molecular target: panel of more than 300 wild-type and mutant kinases (313 kinase panel) (Homo sapiens, UniProt P07949, S891A); assay: Kinase profiling in a biochemical assay panel (mobility shift assays and ELISA), %-inhibition at 1 μM; selectivity entropy; conditions: kinase RET(S891A); 1 μM
Sequence (P07949 29-1114 S891A): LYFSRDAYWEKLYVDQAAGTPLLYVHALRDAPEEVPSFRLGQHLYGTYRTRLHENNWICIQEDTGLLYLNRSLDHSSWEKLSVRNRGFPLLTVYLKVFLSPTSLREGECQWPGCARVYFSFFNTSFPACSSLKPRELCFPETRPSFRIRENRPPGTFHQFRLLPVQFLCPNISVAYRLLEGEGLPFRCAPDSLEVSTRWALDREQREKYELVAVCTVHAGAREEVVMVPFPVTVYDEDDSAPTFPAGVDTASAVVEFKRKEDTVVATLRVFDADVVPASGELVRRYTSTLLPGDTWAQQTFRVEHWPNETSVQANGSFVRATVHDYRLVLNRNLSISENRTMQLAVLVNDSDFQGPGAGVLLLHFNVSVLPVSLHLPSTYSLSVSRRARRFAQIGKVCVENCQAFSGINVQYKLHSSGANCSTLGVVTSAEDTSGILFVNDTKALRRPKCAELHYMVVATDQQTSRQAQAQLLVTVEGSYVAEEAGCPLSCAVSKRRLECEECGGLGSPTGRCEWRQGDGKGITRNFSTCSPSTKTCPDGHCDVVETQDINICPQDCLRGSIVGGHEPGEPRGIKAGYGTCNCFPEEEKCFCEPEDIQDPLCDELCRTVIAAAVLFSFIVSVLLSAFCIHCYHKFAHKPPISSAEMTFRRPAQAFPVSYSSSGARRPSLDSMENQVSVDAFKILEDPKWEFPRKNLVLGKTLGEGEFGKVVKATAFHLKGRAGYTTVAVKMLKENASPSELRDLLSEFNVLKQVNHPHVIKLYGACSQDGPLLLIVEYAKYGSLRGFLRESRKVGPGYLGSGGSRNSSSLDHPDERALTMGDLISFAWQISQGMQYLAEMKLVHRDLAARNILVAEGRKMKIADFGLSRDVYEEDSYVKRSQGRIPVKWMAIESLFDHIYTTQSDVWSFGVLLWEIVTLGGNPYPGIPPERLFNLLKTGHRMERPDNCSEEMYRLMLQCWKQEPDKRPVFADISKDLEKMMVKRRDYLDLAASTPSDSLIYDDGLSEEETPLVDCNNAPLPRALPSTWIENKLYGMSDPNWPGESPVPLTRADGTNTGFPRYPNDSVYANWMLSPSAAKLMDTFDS
reported_metric: %-inhibition of RET(S891A) (%)
One number for each entry, in %.

| compound_structure | %-inhibition of RET(S891A) (%) |
| --- | --- |
| COc1cc(Nc2c(C#N)cnc3cc(OCCCN4CCN(C)CC4)c(OC)cc23)c(Cl)cc1Cl | 90 |
| CO[C@H]1C[C@@H]2CC[C@@H](C)[C@@](O)(O2)C(=O)C(=O)N2CCCC[C@H]2C(=O)O[C@H]([C@H](C)C[C@@H]2CC[C@@H](OCCO)[C@H](OC)C2)CC(=O)[C@H](C)/C=C(\C)[C@@H](O)[C@@H](OC)C(=O)[C@H](C)C[C@H](C)/C=C/C=C/C=C/1C | -3 |
| O=S(=O)(c1cccc2cnccc12)N1CCCNCC1 | -1.38 |
| CO[C@H]1C[C@@H]2CC[C@@H](C)[C@@](O)(O2)C(=O)C(=O)N2CCCC[C@H]2C(=O)O[C@H]([C@H](C)C[C@@H]2CC[C@@H](OC(=O)C(C)(CO)CO)[C@H](OC)C2)CC(=O)[C@H](C)/C=C(\C)[C@@H](O)[C@@H](OC)C(=O)[C@H](C)C[C@H](C)/C=C/C=C/C=C/1C | -2.19 |

// query Can you look up the measured %-inhibition of RET(S891A) of "Cc1ccc(C(=O)Nc2ccc(CN3CCN(C)CC3)c(C(F)(F)F)c2)cc1C#Cc1cnc2cccnn12" for me?
// result 102
